- Substrate: [O]=[Cr](=[O])([OH])[OH]
- EXPERIMENTAL_PROTOCOL: purified protein
- PARTICULARS: 1 mM NADH, 50 mM Tris-Cl pH 7.0, 22°C
READOUT_NAME: kcat/Km

Example results:
1) NfsA_Kp (Klebsiella pneumoniae) (protein) MTPTIELLRSHRSIRHFTDAPVSDEQRAEIIASAQAASTSSFLQCTSIIRITDPALRERLVPLTGGQQHVAQAAEFWVFCADFNRHLQICPQAQLGLAEQLLIGVVDTALLAQNALTAAESLGLGGVYIGGLRNSIEAVTELLELPQHVLPLFGLCLGWPADNPDIKPRMPAAMLVHENRYQPLDNALLAEYDEQLAHYYLSRGSNARRDTWSDHIRRTIVKESRPFILDYLHKQGWATR; 69000 M⁻¹ s⁻¹
2) ChrR_Pa (Pseudomonas aeruginosa PAO1) (protein) MSDDIKVLGISGSLRSGSYNSAALQEAIGLVPPGMSIELADISGIPLYNEDVYALGFPPAVERFREQIRAADALLFATPEYNYSMAGVLKNAIDWASRPPEQPFSGKPAAILGASAGRFGTARAQYHLRQTLVFLDVHPLNKPEVMISSAQNAFDAQGRLLDDKARELIQQQLQALQLWVRRLRG; 1100 M⁻¹ s⁻¹
3) MdaB_Ec (Escherichia coli K-12) (protein) SNILIINGAKKFAHSNGQLNDTLTEVADGTLRDLGHDVRIVRADSDYDVKAEVQNFLWADVVIWQMPGWWMGAPWTVKKYIDDVFTEGHGTLYASDGRTRKDPSKKYGSGGLVQGKKYMLSLTWNAPMEAFTEKDQFFHGVGVDGVYLPFHKANQFLGMEPLPTFIANDVIKMPDVPRYTEEYRKHLVEIFG; 1100 M⁻¹ s⁻¹

Indicate the recorded kcat/Km value for this protein: Frp_Vh1 (Vibrio harveyi) (protein) MNNTIETILAHRSIRKFTAVPITDEQRQTIIQAGLAASSSSMLQVVSIVRVTDSEKRNELAQFAGNQAYVESAAEFLVFCIDYQRHATINPDVQADFTELTLIGAVDSGIMAQNCLLAAESMGLGGVYIGGLRNSAAQVDELLGLPENSAVLFGMCLGHPDQNPEVKPRLPAHVVVHENQYQELNLDDIQSYDQTMQAYYASRTSNQKLSTWSQEVTGKLAGESRPHILPYLNSKGLAKR
84000 M⁻¹ s⁻¹

Indicate the recorded kcat/Km value for this protein: NfsB_Kp (Klebsiella pneumoniae subsp. pneumoniae MGH 78578) (protein) MDIVSVALKRYSTKAFDATKKLTAGEAEQLKTLLQYSPSSTNSQPWHFIVASTDEGKARVAKAASGTYVFNERKILDASHVVVFCAKTAMDDAWLQRVVDQEEADGRFATPDAKAANHKGRTFFADMHRKELKDDDQWMAKQVYLNVGNFLLGVAAMGLDAVPIEGVDFAILDEEFDLKAQGYTSLVVVPVGHHSAEDFNATLPKSRLPQSTTITEI
7800 M⁻¹ s⁻¹

Just for reference, paper PMC3596305 is where these values come from.
